Parameter Ki: see the listing below.
target: ERK2 (Homo sapiens); assay: ERK2 inhibition, spectrophotometric coupled-enzyme assay; assay type: biochemical; conditions: activated ERK2 10 nM, 65 μM ATP, 30° C., pH 7.5; read-out: ERK2 Inhibitory Activity (Ki class)
Sequence (P28482 whole entry): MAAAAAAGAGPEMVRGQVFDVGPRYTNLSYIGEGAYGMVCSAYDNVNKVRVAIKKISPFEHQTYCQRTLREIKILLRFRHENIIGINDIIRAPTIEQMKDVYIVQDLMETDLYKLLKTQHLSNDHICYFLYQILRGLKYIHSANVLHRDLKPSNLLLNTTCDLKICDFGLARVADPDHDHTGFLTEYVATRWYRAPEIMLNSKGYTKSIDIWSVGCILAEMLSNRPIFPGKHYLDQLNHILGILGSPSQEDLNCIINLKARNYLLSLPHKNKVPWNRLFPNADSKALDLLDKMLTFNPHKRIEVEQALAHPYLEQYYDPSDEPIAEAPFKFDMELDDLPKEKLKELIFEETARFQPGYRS
Quantity: Ki

{"Molecule": "O=C(c1cc(-c2[nH]ncc2-c2ccc(F)c(Cl)c2)c[nH]1)N1CCOCC1 [II-107]", "Recorded result": "< 1000 nM"}
{"Molecule": "COc1cc(CNC(=O)c2cc(-c3[nH]ncc3-c3cccc(Br)c3)c[nH]2)cc(OC)c1 [II-68]", "Recorded result": "< 1000 nM"}
{"Molecule": "O=C(NCc1ccncc1)c1cc(-c2[nH]ncc2-c2ccc(F)c(Cl)c2)c[nH]1 [II-70]", "Recorded result": "< 1000 nM"}
{"Molecule": "O=C(c1cc(-c2[nH]ncc2-c2cccc(Br)c2)c[nH]1)N(Cc1ccccc1)[C@H](CO)c1ccccc1 [II-288]", "Recorded result": "1000 to 5000 nM"}
{"Molecule": "O=C(NCc1ccccc1)c1cc(-c2n[nH]cc2-c2ccccc2)c[nH]1 [II-5]", "Recorded result": "< 1000 nM"}
{"Molecule": "O=C(NOCc1ccccc1)c1cc(-c2[nH]ncc2-c2cccc(F)c2)c[nH]1 [II-89]", "Recorded result": "< 1000 nM"}
{"Molecule": "COc1cccc(-c2cn[nH]c2-c2c[nH]c(C(=O)N3CCN(C)CC3)c2)c1 [II-29]", "Recorded result": "> 5000 nM"}
{"Molecule": "CC(C)(C)OC(=O)N1CCCC(CNC(=O)c2cc(-c3[nH]ncc3-c3cc(Cl)cc(Cl)c3)c[nH]2)C1 (stereo not drawn) [II-125]", "Recorded result": "1000 to 5000 nM"}
{"Molecule": "O=C(NCc1ccncc1)c1cc(-c2[nH]ncc2-c2cc(F)ccc2F)c[nH]1 [II-98]", "Recorded result": "< 1000 nM"}
{"Molecule": "O=C(NCc1ccccc1)c1cc(-c2[nH]ncc2-c2cccc([N+](=O)[O-])c2)c[nH]1 [II-79]", "Recorded result": "< 1000 nM"}
{"Molecule": "CCOC(=O)c1cc(-c2[nH]ncc2-c2ccc(F)cc2)c[nH]1 [II-11]", "Recorded result": "> 5000 nM"}
{"Molecule": "CCOC(=O)c1cc(-c2[nH]ncc2-c2cccc([N+](=O)[O-])c2)c[nH]1 [II-6]", "Recorded result": "< 1000 nM"}
{"Molecule": "COC(=O)c1cccc(-c2cn[nH]c2-c2c[nH]c(C(=O)NCc3ccccc3)c2)c1 [II-132]", "Recorded result": "1000 to 5000 nM"}
{"Molecule": "O=C(NC(CO)c1ccccc1)c1cc(-c2[nH]ncc2-c2cccc(Br)c2)c[nH]1 (stereo not drawn) [II-45]", "Recorded result": "< 1000 nM"}
{"Molecule": "O=C(NCC1CCCO1)c1cc(-c2[nH]ncc2-c2cc(Cl)cc(Cl)c2)c[nH]1 (stereo not drawn) [II-78]", "Recorded result": "< 1000 nM"}
{"Molecule": "Nc1cccc(-c2cn[nH]c2-c2c[nH]c(C(=O)NCc3ccccc3)c2)c1 [II-131]", "Recorded result": "1000 to 5000 nM"}
{"Molecule": "O=C(NCC1CCCO1)c1cc(-c2[nH]ncc2-c2ccc(F)c(Cl)c2)c[nH]1 (stereo not drawn) [II-100]", "Recorded result": "< 1000 nM"}
{"Molecule": "CCOC(=O)c1cc(-c2[nH]ncc2-c2ccc(OC)cc2)c[nH]1 [II-8]", "Recorded result": "> 5000 nM"}

Source of measurements: patent US6593357B1
